Target: JAK1 (recombinant purified GST-tagged catalytic domain) (Homo sapiens (Human))
Test: Jak Biochemical HTRF Assay (JAK1)
Conditions: [ATP] 31.8 μM
pIC50: −log10 of the molar value.
OBSERVED_PROPERTY: pIC50

{"columns": ["COMPOUND", "SYSTEM", "NUMERIC_READOUT"],
 "data": [
  ["COC(=O)[C@@H]1CC[C@@](CC#N)(n2nc(Nc3ccc(S(C)(=O)=O)cc3)c3c(=O)[nH]ccc32)CO1 (single isomer, unassigned) [Example 5-33]", "JAK1 (recombinant purified GST-tagged catalytic domain) (Homo sapiens (Human))", 10.52]
]}

P: CC(C)(C)OC(=O)N1CCC(CC#N)(n2nc(Nc3ccc([C@@]4(C(F)(F)F)CCCN4)cc3)c3c(=O)[nH]ccc32)CC1 (single isomer, unassigned)
Q: COC1CN([C@H]2CC[C@@](CC#N)(n3nc(Nc4ccc(OC(F)(F)F)cc4)c4c(=O)[nH]ccc43)CC2)C1
Kindly identify which of P and Q has the larger recorded pIC50 value. Pick one; state its label. P

a: CN(C)c1ccc2cc(Nc3nn([C@]4(CC#N)CC[C@@H](C(=O)OC(C)(C)C)OC4)c4cc[nH]c(=O)c34)ccc2n1
b: N#CCC1(n2nc(Nc3ccc(C#N)cc3)c3c(=O)[nH]ccc32)CCCC1
Param metric = pIC50; output whichever of a , b has the minimum value. Reply with the label of the item you choose. b

---

Target: JAK2 (recombinant purified GST-tagged catalytic domain) (Homo sapiens (Human))
Experiment: Jak Biochemical HTRF Assay (JAK2)
Conditions: [ATP] 8.5 μM
OBSERVED_PROPERTY: IC50 (nM)

// worked examples, IC50 included
{"columns": ["SMILES_ENTRY", "IC50, nM"],
 "data": [
  ["CN(C)S(=O)(=O)c1ccc(Nc2nn(C3(CC#N)CCN(C(=O)OC4CCSCC4)CC3)c3cc[nH]c(=O)c23)cc1", 1.45],
  ["Cc1cc(C)n(-c2ccc(Nc3nn([C@]4(CC#N)CC[C@@H](C(=O)OC(C)(C)C)OC4)c4cc[nH]c(=O)c34)cc2)n1", 0.73]
]}

A: CC1(C)CCCN1S(=O)(=O)c1ccc(Nc2nn([C@]3(CC#N)CCCOC3)c3cc[nH]c(=O)c23)cc1
B: CS(=O)(=O)c1ccc(Nc2nn([C@@]3(CC#N)CCCOC3)c3cc[nH]c(=O)c23)cc1
Return label of the item with the larger IC50. Candidates: A , B . Mark your answer with the label of the selected entry. B
(B: 58 nM, A: 0.33 nM)

---

Target: JAK2 (recombinant purified GST-tagged catalytic domain) (Homo sapiens (Human), UniProt O60674)
Sequence (O60674 849-1124): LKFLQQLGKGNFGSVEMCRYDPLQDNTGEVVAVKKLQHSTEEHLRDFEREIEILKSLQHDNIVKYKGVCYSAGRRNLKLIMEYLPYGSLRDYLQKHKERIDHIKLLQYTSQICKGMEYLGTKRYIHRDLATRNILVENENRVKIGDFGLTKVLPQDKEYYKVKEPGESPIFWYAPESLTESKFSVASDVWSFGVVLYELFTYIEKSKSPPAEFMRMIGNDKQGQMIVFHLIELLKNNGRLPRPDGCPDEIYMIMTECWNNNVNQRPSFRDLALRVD
Assay: Jak Biochemical HTRF Assay (JAK2)
Conditions: [ATP] 8.5 μM
pIC50: −log10 of the molar value.
OBSERVED_PROPERTY: pIC50

The cases that follow already have their pIC50 on record.
{"columns": ["COMPOUND", "pIC50"],
 "data": [
  ["N#CC[C@]1(n2nc(Nc3ccc(Cl)cc3)c3c(=O)[nH]ccc32)CC[C@H](Nc2ccccc2)CC1", 7.49],
  ["CC(C)NC(c1ccc(Nc2nn([C@]3(CC#N)CCCOC3)c3cc[nH]c(=O)c23)cc1)C(F)(F)F (single isomer, unassigned) [Example 5-205]", 9.70],
  ["CC(c1ccc(Nc2nn([C@]3(CC#N)CC[C@@H](C(=O)OC(C)(C)C)OC3)c3cc[nH]c(=O)c23)cc1)N1CCCC1 (single isomer, unassigned) [Example 5-211]", 9.92],
  ["CC(C)(C)OC(=O)[C@@H]1CC[C@@](CC#N)(n2nc(Nc3ccc4c(c3)CN(C(C)(C)C)C4=O)c3c(=O)[nH]ccc32)CO1", 9.59],
  ["CC(C)(O)[C@@H]1CC[C@@](CC#N)(n2nc(Nc3ccc(Cl)cc3)c3c(=O)[nH]ccc32)CO1", 8.95],
  ["N#CC[C@]1(n2nc(Nc3ccnc(F)c3)c3c(=O)[nH]ccc32)CCCC[C@H]1F", 9.17],
  ["CN(C)S(=O)(=O)c1ccc(Nc2nn(C3(CC#N)CCN(C(=O)c4ccccc4)CC3)c3cc[nH]c(=O)c23)cc1", 7.78],
  ["COC(=O)[C@@H]1CC[C@@](CC#N)(n2nc(Nc3ccc(S(C)(=O)=O)cc3)c3c(=O)[nH]ccc32)CO1 (single isomer, unassigned) [Example 5-33]", 9.64]
]}

A: CN1Cc2cc(Nc3nn([C@]4(CC#N)CC[C@H](N5CC(F)C5)CC4)c4cc[nH]c(=O)c34)ccc2S1(=O)=O
B: CC(C)(C)OC(=O)[C@@H]1CC[C@@](CC#N)(n2nc(Nc3ccc(C4(C(F)(F)F)CCNC4)cc3)c3c(=O)[nH]ccc32)CO1 (single isomer, unassigned) [Example 5-284]
// select label with min value of measured pIC50 from [ A , B ] Answer format: the label of the selected item. A
(A: 7.77, B: 9.62)

P: CC(C)(C)OC(=O)N1CCC(CC#N)(n2nc(Nc3ccc(S(=O)(=O)N4CCCCC4)cc3)c3c(=O)[nH]ccc32)CC1
Q: CC(C)S(=O)(=O)c1ccc(Nc2nn([C@]3(CC#N)CC[C@@H](C(=O)OC(C)(C)C)OC3)c3cc[nH]c(=O)c23)cc1 [Example 5-237]
Record comparison, field pIC50: mark the lower of P and Q . Lab note: record the label of whichever item you select. P

---

Target: JAK2 (recombinant purified GST-tagged catalytic domain) (Homo sapiens (Human), UniProt O60674)
Experiment: Jak Biochemical HTRF Assay (JAK2)
Conditions: [ATP] 8.5 μM
Procedure: Jak Biochemical HTRF Assay Protocol The ability of compounds to inhibit the activity of JAK1, JAK2, JAK3, and Tyk2 was measured using a recombinant purified GST-tagged catalytic domain for each enzyme (Invitrogen JAK1 #M4290, JAK2 #M4290, JAK3 #M4290, Tyk2 #M4290) in an HTRF format biochemical assay. […] Plates were shaken and centrifuged and then incubated 60 minutes at room temperature and then read on a Perkin Elmer Envision (λex=337 nm, λem=665 and 615 nm, TRF delay time=20 μs). […]
pIC50: −log10 of the molar value.
OBSERVED_PROPERTY: pIC50

{"columns": ["MOLECULE", "NUMERIC_READOUT"],
 "data": [
  ["CN(C)CC(=O)N1CCC(CC#N)(n2nc(Nc3ccc(S(=O)(=O)N(C)C)cc3)c3c(=O)[nH]ccc32)CC1 [Example 9-4]", 8.29],
  ["CC(C)(C)OC(=O)c1ccc(Nc2nn(C3(CC#N)CCCC3)c3cc[nH]c(=O)c23)cc1 [Example 5-127]", 7.52],
  ["CC(C)(C)NC(c1ccc(Nc2nn([C@]3(CC#N)CCCOC3)c3cc[nH]c(=O)c23)cc1)C(F)(F)F (single isomer, unassigned) [Example 5-190]", 9.42]
]}

P: Cc1cc(Nc2nn(C3(CC#N)CCN(C(=O)OC(C)(C)C)CC3)c3cc[nH]c(=O)c23)ccc1C(=O)N1CCC(F)(F)CC1 [Example 21-11]
Q: CSCCOC(=O)N1CCC(CC#N)(n2nc(Nc3ccc(S(=O)(=O)N(C)C)cc3)c3c(=O)[nH]ccc32)CC1 [Example 11-3]
When their pIC50 values are compared, which is larger, P or Q ? Select an item and report its label. P
(P: 9.42, Q: 8.96)

---

Target: JAK1 (recombinant purified GST-tagged catalytic domain) (Homo sapiens (Human), UniProt P23458)
Sequence (P23458 875-1153): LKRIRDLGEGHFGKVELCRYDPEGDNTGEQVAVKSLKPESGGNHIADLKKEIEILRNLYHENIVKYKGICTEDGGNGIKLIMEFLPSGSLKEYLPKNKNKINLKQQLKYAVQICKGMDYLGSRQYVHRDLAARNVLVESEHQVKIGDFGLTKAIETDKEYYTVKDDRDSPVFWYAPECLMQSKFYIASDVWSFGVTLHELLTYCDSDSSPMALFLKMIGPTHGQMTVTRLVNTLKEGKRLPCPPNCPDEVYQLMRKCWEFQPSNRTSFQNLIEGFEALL
Assay: Jak Biochemical HTRF Assay (JAK1)
Settings: [ATP] 31.8 μM
OBSERVED_PROPERTY: IC50 (nM)

Consider the reported IC50 for these compounds:
{"columns": ["COMPOUND", "UNIT_DESCRIPTOR", "IC50"],
 "data": [
  ["COC1CN([C@H]2CC[C@](CC#N)(n3nc(Nc4ccc(OC(F)(F)F)cc4)c4c(=O)[nH]ccc43)CC2)C1 [Example 18-16]", "nM", 0.15],
  ["CN(C)S(=O)(=O)c1ccc(Nc2nn(C3(CC#N)CCN(C(=O)C4CCCCC4)CC3)c3cc[nH]c(=O)c23)cc1 [Example 9-8]", "nM", 0.16]
]}

I: COC(c1ccc(Nc2nn([C@@]3(CC#N)CCN(C(=O)OC(C)(C)C)C[C@H]3F)c3cc[nH]c(=O)c23)cc1)C(F)(F)F (stereo partly shown) [Example 5-275]
II: CC(C)(C)OC(=O)N1CCC(CC#N)(n2nc(Nc3ccc4c(c3)CCS4(=O)=O)c3c(=O)[nH]ccc32)CC1 [Example 5-82]
// task: argmin of IC50 over [ I , II ] // respond with label for picked entry II

---

Biological target: JAK2 (recombinant purified GST-tagged catalytic domain) (Homo sapiens (Human), UniProt O60674)
Test: Jak Biochemical HTRF Assay (JAK2)
Conditions: [ATP] 8.5 μM
pIC50: −log10 of the molar value.
OBSERVED_PROPERTY: pIC50

A: CC(C)(C)OC(=O)N1CC[C@](CC#N)(n2nc(Nc3ccc([C@H](O)C(F)(F)F)cc3)c3c(=O)[nH]ccc32)[C@H](F)C1 (single isomer, unassigned) [Example 5-20]
B: CNS(=O)(=O)c1ccc(Nc2nn(C3(CC#N)CCCC3)c3cc[nH]c(=O)c23)cc1 [Example 5-131]
Between A and B , which one shows the larger pIC50 value? Write down the label of the entry you select. A
(A: 9.92, B: 9.01)

P: Cc1cc(Nc2nn(C3(CC#N)CCN(C(=O)OC(C)(C)C)CC3)c3cc[nH]c(=O)c23)ccc1C(=O)N1CCOCC1 [Example 21-20]
Q: CC(C)(C)S(=O)(=O)c1ccc(Nc2nn(C3(CC#N)CCOCC3)c3cc[nH]c(=O)c23)cc1 [Example 5-252]
R: N#CC[C@@]1(n2nc(Nc3ccc(S(=O)(=O)N4CCOCC4)cc3)c3c(=O)[nH]ccc32)CCCOC1 [Example 5-204]
S: N#CC[C@@]1(n2nc(Nc3ccc4c(c3)CN(C3CCN(CC(F)(F)F)CC3)S4(=O)=O)c3c(=O)[nH]ccc32)CCOC[C@@H]1F (single isomer, unassigned) [Example 5-277]
Order the items by recorded pIC50; the first position goes to the largest value. In your reply, arrange the labels in the requested order. S, P, R, Q
